experiment-description: Oral bioavailability in Sprague-Dawley rat at 10 mg/kg
Format: ADME, organism-based
conditions-used: in vivo
measured-attribute: bioavailability (%)

[ask] Answer with the recorded bioavailability for the molecule listed here: CCS(=O)(=O)N1CC2(CCN(C(=O)Nc3cn(-c4ccccc4)cn3)CC2)c2ccccc21
[reply] 37

[ask] Answer with the recorded bioavailability for the molecule listed here: CCS(=O)(=O)N1CC2(CCN(C(=O)Nc3cn(-c4cccc(F)c4)cn3)CC2)c2ccccc21
[reply] 23

[ask] Answer with the recorded bioavailability for the molecule listed here: CS(=O)(=O)N1CC2(CCN(C(=O)Nc3ccc4ncccc4c3)CC2)c2ccccc21
[reply] 24

[ask] Answer with the recorded bioavailability for the molecule listed here: CS(=O)(=O)N1CC2(CCN(C(=O)Nc3cn(-c4ccccc4)cn3)CC2)c2ccccc21
[reply] 27

[ask] Answer with the recorded bioavailability for the molecule listed here: CS(=O)(=O)N1CC2(CCN(C(=O)Nc3cc(-c4ccccc4)no3)CC2)c2ccccc21
[reply] 23

[I] CCS(=O)(=O)N1CC2(CCN(C(=O)Nc3cn(-c4ccccc4F)cn3)CC2)c2ccccc21
[II] CCS(=O)(=O)N1CC2(CCN(C(=O)Nc3cn(-c4cccc(OC)c4)cn3)CC2)c2ccccc21
[III] CS(=O)(=O)N1CC2(CCN(C(=O)Nc3cc(-c4ccccc4)n[nH]3)CC2)c2ccccc21
[ask] Endpoint returns the given molecules ordered by ascending bioavailability. Return value: ordered labels per request.
[reply] III, I, II

Cited source for all entries: ChEMBL document CHEMBL1154087
